- System: NCI-H1395
- TEST METHOD NOTES: relative viability (nuclei count vs DMSO), 5 days (fraction); higher = more cells survive
- TEST CONDITIONS: first compound 0.08 µM
OBSERVATION TYPE: relative viability
Numbers only.

Answered cases to consult:
COMPOUND	relative viability
O=c1[nH]c2ccccc2n1C1CCN(CCCC(c2ccc(F)cc2)c2ccc(F)cc2)CC1 [Pimozide] + CS(=O)(=O)CCNCc1ccc(-c2ccc3ncnc(Nc4ccc(OCc5cccc(F)c5)c(Cl)c4)c3c2)o1 [Lapatinib] (partner 2 µM)	0.966
Cc1cnc(-c2cnc(NCCNc3ccc(C#N)cn3)nc2-c2ccc(Cl)cc2Cl)[nH]1 + Cc1nc(NC(=O)N2CCC[C@H]2C(N)=O)sc1-c1ccnc(C(C)(C)C(F)(F)F)c1 [Alpelisib] (partner 2 µM)	1.23
O=c1[nH]c2ccccc2n1C1CCN(CCCC(c2ccc(F)cc2)c2ccc(F)cc2)CC1 [Pimozide] + COc1cc2c(Oc3ccc(NC(=O)C4(C(=O)Nc5ccc(F)cc5)CC4)cc3F)ccnc2cc1OCCCN1CCOCC1 [Foretinib] (partner 0.25 µM)	1.02

Count: 3. Required value per item: relative viability.
1. Cc1cnc(-c2cnc(NCCNc3ccc(C#N)cn3)nc2-c2ccc(Cl)cc2Cl)[nH]1 + O=C(CCCCCCC(=O)Nc1ccccc1)NO [Vorinostat] (partner 1 µM)
2. Cc1cnc(-c2cnc(NCCNc3ccc(C#N)cn3)nc2-c2ccc(Cl)cc2Cl)[nH]1 + CC(=O)c1c(C)c2cnc(Nc3ccc(N4CCNCC4)cn3)nc2n(C2CCCC2)c1=O [Palbociclib] (partner 0.5 µM)
3. O=c1[nH]c2ccccc2n1C1CCN(CCCC(c2ccc(F)cc2)c2ccc(F)cc2)CC1 [Pimozide] + Nc1ncn([C@H]2C[C@H](O)[C@@H](CO)O2)c(=O)n1 [Decitabine] (partner 2 µM)

0.847
0.762
0.692

Count: 3. Required value per item: relative viability.
1. Cc1cnc(-c2cnc(NCCNc3ccc(C#N)cn3)nc2-c2ccc(Cl)cc2Cl)[nH]1 + Cc1cc(Nc2cc(N3CCN(C)CC3)nc(Sc3ccc(NC(=O)C4CC4)cc3)n2)n[nH]1 [Tozasertib] (partner 0.1 µM)
2. O=c1[nH]c2ccccc2n1C1CCN(CCCC(c2ccc(F)cc2)c2ccc(F)cc2)CC1 [Pimozide] + O=C(CCCCCCC(=O)Nc1ccccc1)NO [Vorinostat] (partner 1 µM)
3. O=c1[nH]c2ccccc2n1C1CCN(CCCC(c2ccc(F)cc2)c2ccc(F)cc2)CC1 [Pimozide] + CC(=O)c1c(C)c2cnc(Nc3ccc(N4CCNCC4)cn3)nc2n(C2CCCC2)c1=O [Palbociclib] (partner 0.5 µM)

1. 0.778
2. 0.696
3. 0.579
